Taken from the supplement of paper PMC9938120.

// reported drug sensitivity score for each item listed
system: FMOC25_1 (patient-derived low-grade serous ovarian cancer cells); experiment: drug sensitivity score (DSS3, normalised partial AUC of % inhibition dose-response) (DSS (score)); higher = more sensitive (stronger inhibition of viability); extreme values may be limits of the assay; conditions: 72 h; library: FO4B; assay format: 2D, 384-well, CellTiter-Glo
MEASURED_ATTRIBUTE: drug sensitivity score

COMPOUND	MEASURED_ATTRIBUTE	RECORDED_RESULT
Cc1nc(Nc2n[nH]c3c2CN(C(=O)N[C@H](CN(C)C)c2ccccc2)C3(C)C)c2sccc2n1	drug sensitivity score	16.7
CCN(CC)Cc1ccc2cc(COC(=O)Nc3ccc(C(=O)NO)cc3)ccc2c1 [Givinostat]	drug sensitivity score	5.2
CC(C)[C@H]1C(=O)N[C@@H](CCCNC(=N)N)C(=O)NCC(=O)N[C@@H](CC(=O)O)C(=O)N[C@H](Cc2ccccc2)C(=O)N1C [Cilengitide]	drug sensitivity score	0
CO[C@H]1C[C@@H]2CC[C@@H](C)[C@@](O)(O2)C(=O)C(=O)N2CCCC[C@H]2C(=O)O[C@H]([C@H](C)C[C@@H]2CC[C@@H](OP(C)(C)=O)[C@H](OC)C2)CC(=O)[C@H](C)/C=C(\C)[C@@H](O)[C@@H](OC)C(=O)[C@H](C)C[C@H](C)/C=C/C=C/C=C/1C [Ridaforolimus]	drug sensitivity score	10.3
C[C@H]1Oc2cc(cnc2N)-c2c(nn(C)c2C#N)CN(C)C(=O)c2ccc(F)cc21	drug sensitivity score	0
CC(C)Oc1ccc(C(=O)N[C@H](CNC(=O)CN(C)C)Cc2ccc(-c3cn4cccc([C@H](C)O)c4n3)cc2)cc1Cl	drug sensitivity score	3.3

###

system: FMOC11 (patient-derived high-grade serous ovarian cancer cells); experiment: drug sensitivity score (DSS3, normalised partial AUC of % inhibition dose-response) (DSS (score)); higher = more sensitive (stronger inhibition of viability); extreme values may be limits of the assay; conditions: 72 h; library: FO5A; assay format: 2D, 384-well, CellTiter-Glo
Catalogue of drug sensitivity score readings, one per entry.
MEASURED_ATTRIBUTE: drug sensitivity score

1) N[C@@H]1CCCN(c2c(/C=C3\SC(=O)NC3=O)cccc2-c2ccccc2)C1 0
2) C[C@@H]1C=C2C(=O)O[C@@H]3CC[C@H](C1)[C@]23O 4
3) Clc1ccccc1C(c1ccccc1)(c1ccccc1)n1cccn1 0
4) CN1CCN(c2ccc(C(=O)Nc3n[nH]c4ccc(Cc5cc(F)cc(F)c5)cc34)c(NC3CCOCC3)c2)CC1 1.1
5) CC(C)c1c(C(=O)Nc2ccccc2)c(-c2ccccc2)c(-c2ccc(F)cc2)n1CC[C@@H](O)C[C@@H](O)CC(=O)O 3.1
6) COc1cc2c(cc1OCCCN1CCCC1)N=C(N)C21CCC1 1.1
7) Cc1ncc(Cl)cc1NCc1ccc(C(=O)N[C@@H](CC2CCCC2)C(=O)NC2CC2)s1 0
8) C=C(c1ccc(C(=O)O)cc1)c1cc2c(cc1C)C(C)(C)CCC2(C)C 1.2
9) C[C@@H]1CCN(C(=O)CC#N)C[C@@H]1N(C)c1ncnc2[nH]ccc12 0
10) CC[C@@H]1[C@H](F)C(=O)N[C@@H]1COc1nccc2cc(C(N)=O)c(OC)cc12 0
11) CCc1cc2c(cc1N1CCC(N3CCOCC3)CC1)C(C)(C)c1[nH]c3cc(C#N)ccc3c1C2=O 0.7
12) COc1ccc(CCc2nc3cc(-c4c(C)noc4C)ccc3n2C[C@H](C)N2CCOCC2)cc1Cl 4.6
13) CCOC(=O)C1=CCCC[C@H]1S(=O)(=O)Nc1ccc(F)cc1Cl 0
14) CN1CCN(C(=O)c2ccc3cc(CCNc4ncnc5ccc(C#N)cc45)ccc3c2)CC1 0
15) O=C(Nc1ccc(OC(F)(F)Cl)cc1)c1cnc(N2CC[C@@H](O)C2)c(-c2cc[nH]n2)c1 0
16) CNC(=O)c1ccc2cc([C@@]3(O)CCn4cncc43)ccc2c1 0
17) COc1cc2c(NC3CCN(C(C)C)CC3)nc(N3CCC(F)(F)CC3)nc2cc1OCCCN1CCCC1 2.3
